Values compiled from the RNAGym collection of RNA variant scans (doi:10.7554/elife.90254).

B1: LINE1-full (parent)
chain: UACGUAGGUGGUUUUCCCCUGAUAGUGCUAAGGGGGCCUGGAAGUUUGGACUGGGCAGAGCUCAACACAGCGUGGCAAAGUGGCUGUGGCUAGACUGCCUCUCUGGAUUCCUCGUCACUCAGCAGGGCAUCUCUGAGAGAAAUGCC

variants of: B1; assay: self-cleavage, relative activity (ratio to wild type); higher = more cleavage; in vitro, sequencing; the parent is a self-cleaving ribozyme
Listed variants paired with reported self-cleavage
RECORDED_ENDPOINT: self-cleavage

variant_name="U46C U119A" recorded_endpoint=self-cleavage test_value=1.26
variant_name="G25A C38U" recorded_endpoint=self-cleavage test_value=0.64
variant_name="U100C A136U" recorded_endpoint=self-cleavage test_value=1.73
variant_name="U29C G48A" recorded_endpoint=self-cleavage test_value=0.88
variant_name="U13C A136U" recorded_endpoint=self-cleavage test_value=1.18
variant_name="A69G U104A" recorded_endpoint=self-cleavage test_value=0.2
variant_name="A50G G126U" recorded_endpoint=self-cleavage test_value=0.76
variant_name="U15A U39G" recorded_endpoint=self-cleavage test_value=1.02
variant_name="G34C U143C" recorded_endpoint=self-cleavage test_value=2
variant_name="G83A A94U" recorded_endpoint=self-cleavage test_value=0.24
variant_name="C90U A124G" recorded_endpoint=self-cleavage test_value=0.02
variant_name="U20C G75A" recorded_endpoint=self-cleavage test_value=1.16
variant_name="C99A U109C" recorded_endpoint=self-cleavage test_value=0.41
variant_name=C110G recorded_endpoint=self-cleavage test_value=1.04
variant_name="U13C U23C" recorded_endpoint=self-cleavage test_value=0.41
variant_name="G60A C68U" recorded_endpoint=self-cleavage test_value=0.03
variant_name="A117G A121U" recorded_endpoint=self-cleavage test_value=1.86
variant_name="C3U C118U" recorded_endpoint=self-cleavage test_value=1.25
variant_name="U5C U15A" recorded_endpoint=self-cleavage test_value=0.63
variant_name="A69G U96A" recorded_endpoint=self-cleavage test_value=0.04
variant_name="U47C A59U" recorded_endpoint=self-cleavage test_value=0.6
variant_name="A22G G36C" recorded_endpoint=self-cleavage test_value=0.37
